target: T1, Human SIRPαV1 (NP_542970.1), Extracellular Domain + His-Tag (human, UniProt P78324 31-373); assay: SPR, antibody captured on Protein A/G, ECD-His analyte, 1:1 fit
T1 construct: also called huSIRPαV1; hSIRPαV1; not shown: His-Tag
T1 sequence (P78324 other isoform, or with tags, fused parts or gaps): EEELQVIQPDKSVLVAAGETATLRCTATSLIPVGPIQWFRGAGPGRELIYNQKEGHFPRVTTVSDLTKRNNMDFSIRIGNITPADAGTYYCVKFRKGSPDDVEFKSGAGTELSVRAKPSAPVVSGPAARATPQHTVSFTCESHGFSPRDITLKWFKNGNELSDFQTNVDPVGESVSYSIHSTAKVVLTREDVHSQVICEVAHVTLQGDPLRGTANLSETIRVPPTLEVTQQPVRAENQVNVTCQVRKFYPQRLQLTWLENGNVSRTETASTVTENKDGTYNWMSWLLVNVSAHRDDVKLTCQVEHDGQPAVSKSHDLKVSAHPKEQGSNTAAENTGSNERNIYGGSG
# kon per record follows
Remember to follow the number with its unit.

The binder listed as Antibody E2 (antibody, human IgG1, kappa, L234A L235A, V domains shown) VH: QVQLQESGPGLVRPSETLSLTCTVSGGSIRNYYWSWIRQPPGKGLEWIGFIYYNGRTFYNPSLKSRVTISLDMSINQFSLKMTSVTAADTAVYYCARVRAYSGIGLDGTDVWGQGTTVTVSS VL: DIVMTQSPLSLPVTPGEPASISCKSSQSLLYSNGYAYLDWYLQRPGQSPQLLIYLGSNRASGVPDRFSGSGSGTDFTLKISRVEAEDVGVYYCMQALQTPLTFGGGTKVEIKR has a reported kon of 459000 M⁻¹ s⁻¹

Entry under test: Antibody E15 (antibody, human IgG1, kappa, L234A L235A, V domains shown) VH: QVQLQESGPGLVRPSETLSLTCTVSGGSIRNYYWSWIRQPPGKGLEWIGFIYYTGRTFYNPSLKSRVTISLDMSINQFSLKMTSVTAADTAVYYCARVRAYSGIGLDGTDVWGQGTTVTVSS VL: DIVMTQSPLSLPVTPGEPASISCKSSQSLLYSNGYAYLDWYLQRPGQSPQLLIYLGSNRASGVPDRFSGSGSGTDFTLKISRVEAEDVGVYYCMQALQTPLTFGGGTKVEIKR . Its kon was 421000 M⁻¹ s⁻¹

Given item Antibody A13 (antibody, human IgG1, kappa, L234A L235A, V domains shown) VH: EVQLVESGGGLVQPGGSLRLSCAASGFTLSSYDMHWVRQAPGKGLEWVSAIGTAGDTYYTGSVKGRFTISRENAKNSLYLQMNSLRAADTAVYYCVRGGVWDDAFDIWGQGTMVTVSS VL: DIQMTQSPSSLSASVGDRVTITCRASQDINNYLAWFQQKPGKAPKSLIYTASSLHSGVPSKFSGSGSGTDFTLTISSLQPEDFATYYCQQYVSYPYTFGQGTKLEIKR , the value recorded as its kon is 484000 M⁻¹ s⁻¹
